procedure.summary: soluble fraction after stress (log2 fold change); higher = more stays soluble; pooled small domains, quantitative proteomics;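 also: 20 min heating vs room temperature control held 20 min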
test.conditions: stress: 75 degC
This listing pairs sequences with measured soluble fraction (log2).

Consider the worked cases shown below.
HMDAPKPDIGMSTDQIRSSLGQPGSQTRLETGGGRIYELWIYLYPDGKELQIYFDNAKVVKMEALS
-1.19
HMEVIDQLFKIALTLFDIDKGENNSISQDLVDKVIEQMKTTAPTFIKRELSEDEVKKLRFEIQNHFNV
-0.482
HMEALTPREREVLTLMGQGRSNAEIATLLSIAPRTAKVHVQNILSKLGATNRTEAVSLAVRQGLIS
0.343

Turning now to a further sequence:
Request: Using the record for HMLSVRERMSAILVSLEGERYADFTGLFDPTEGKGGVTVTFLAILELLKESMIDVVQNELYGPIHVRAA , state its measured soluble fraction (log2).
Result: -1.07
